- method.description: Solubility of the compound in FeSIF at pH 5.9
- Assay type: physicochemical
readout.kind: solubility (µg/mL)
Provide only the numeric value, understood in µg/mL.

Data request: # lookup: solubility of CC(C)OC1CN(C(=O)N[C@@H]2CCCCc3cc(-c4ccnc(Nc5cnn(C)c5)n4)ccc32)C1
Data returned: 170

* * *

- method.description: Protein binding in rat plasma assessed as unbound fraction
- Assay type: ADME, cell-free
readout.kind: fraction unbound
Please reply with the number alone, leaving off any unit.

Data request: # lookup: fraction unbound of Cn1cc(Nc2nccc(-c3ccc4c(c3)CN(C3COC3)CC[C@H]4NC(=O)c3cn(C(C)(C)C)nn3)n2)cn1 [BIIB-091]
Data returned: 0.1

* * *

For each entry below, report its pKa value.
- method.description: Dissociation constant, pKa of the compound
- Format: physicochemical
Please reply with the number alone, leaving off any unit.

Data request: # lookup: pKa of CN1CC[C@@H](NC(=O)c2cn(C(C)(C)C)nn2)c2ccc(-c3ccnc(Nc4cnn(C)c4)n3)cc2C1
Data returned: 4

Data request: And the next one, Cn1cc(Nc2nccc(-c3ccc4c(c3)CN(C3COC3)CC[C@H]4NC(=O)c3cn(C(C)(C)C)nn3)n2)cn1 ?
Data returned: 2.8

Data request: And the next one, COCCN1CC[C@@H](NC(=O)c2cn(C(C)(C)C)nn2)c2ccc(-c3ccnc(Nc4cnn(C)c4)n3)cc2C1 ?
Data returned: 3.1

* * *

- experimental.system: Sodium channel protein type 5 subunit alpha (Homo sapiens, UniProt Q14524)
- Sequence (Q14524 whole entry): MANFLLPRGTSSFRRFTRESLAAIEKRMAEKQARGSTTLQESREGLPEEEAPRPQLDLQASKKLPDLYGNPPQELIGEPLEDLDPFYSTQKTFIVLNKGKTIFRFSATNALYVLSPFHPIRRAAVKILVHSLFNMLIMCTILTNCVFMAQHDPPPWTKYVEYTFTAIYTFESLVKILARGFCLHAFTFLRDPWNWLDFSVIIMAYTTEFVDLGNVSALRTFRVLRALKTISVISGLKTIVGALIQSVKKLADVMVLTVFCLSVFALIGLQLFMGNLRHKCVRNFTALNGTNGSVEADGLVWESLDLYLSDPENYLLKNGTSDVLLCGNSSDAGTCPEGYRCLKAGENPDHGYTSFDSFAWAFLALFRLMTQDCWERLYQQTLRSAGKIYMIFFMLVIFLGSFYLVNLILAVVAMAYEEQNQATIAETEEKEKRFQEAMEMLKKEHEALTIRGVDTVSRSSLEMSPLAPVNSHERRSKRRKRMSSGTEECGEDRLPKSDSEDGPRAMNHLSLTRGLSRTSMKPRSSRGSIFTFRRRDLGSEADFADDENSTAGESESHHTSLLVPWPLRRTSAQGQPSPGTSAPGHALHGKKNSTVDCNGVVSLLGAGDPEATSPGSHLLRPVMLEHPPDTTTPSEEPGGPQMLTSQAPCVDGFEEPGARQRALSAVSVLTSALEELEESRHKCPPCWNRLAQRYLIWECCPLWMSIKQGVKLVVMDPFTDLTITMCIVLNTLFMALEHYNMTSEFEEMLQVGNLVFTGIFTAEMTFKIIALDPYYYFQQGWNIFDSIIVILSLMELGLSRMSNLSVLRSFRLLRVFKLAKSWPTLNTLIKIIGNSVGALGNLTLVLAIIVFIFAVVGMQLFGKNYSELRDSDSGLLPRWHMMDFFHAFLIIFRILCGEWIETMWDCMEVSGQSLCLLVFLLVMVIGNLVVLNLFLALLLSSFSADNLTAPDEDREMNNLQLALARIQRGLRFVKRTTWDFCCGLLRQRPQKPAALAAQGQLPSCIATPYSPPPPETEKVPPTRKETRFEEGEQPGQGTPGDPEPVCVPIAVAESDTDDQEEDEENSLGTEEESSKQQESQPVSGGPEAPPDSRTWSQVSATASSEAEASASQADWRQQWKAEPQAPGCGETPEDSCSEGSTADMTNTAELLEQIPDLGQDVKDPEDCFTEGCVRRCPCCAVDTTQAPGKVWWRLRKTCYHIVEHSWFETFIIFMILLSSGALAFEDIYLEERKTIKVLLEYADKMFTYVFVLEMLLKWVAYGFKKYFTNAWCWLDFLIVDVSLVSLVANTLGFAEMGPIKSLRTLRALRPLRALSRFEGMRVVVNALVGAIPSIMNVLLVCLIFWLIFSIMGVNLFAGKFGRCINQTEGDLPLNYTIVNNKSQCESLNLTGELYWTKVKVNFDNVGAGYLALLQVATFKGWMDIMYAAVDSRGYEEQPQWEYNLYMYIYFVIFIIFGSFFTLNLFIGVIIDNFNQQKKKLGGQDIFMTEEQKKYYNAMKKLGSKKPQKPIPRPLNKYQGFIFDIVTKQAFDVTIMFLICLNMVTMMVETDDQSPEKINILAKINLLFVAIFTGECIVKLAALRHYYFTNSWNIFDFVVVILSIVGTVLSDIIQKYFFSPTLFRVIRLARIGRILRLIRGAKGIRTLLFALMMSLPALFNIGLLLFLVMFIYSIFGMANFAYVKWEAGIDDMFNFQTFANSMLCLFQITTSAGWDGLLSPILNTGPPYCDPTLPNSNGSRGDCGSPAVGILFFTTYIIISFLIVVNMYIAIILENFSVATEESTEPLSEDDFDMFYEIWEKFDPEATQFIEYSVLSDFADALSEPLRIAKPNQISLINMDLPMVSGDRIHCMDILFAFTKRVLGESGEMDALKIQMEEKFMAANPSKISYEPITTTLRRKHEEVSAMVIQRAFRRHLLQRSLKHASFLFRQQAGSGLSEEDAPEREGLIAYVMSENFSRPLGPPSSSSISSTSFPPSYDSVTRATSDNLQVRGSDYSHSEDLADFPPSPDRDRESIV
- method.description: Inhibition of tonic human Nav1.5
- Type: toxicity
readout.kind: IC50

Data request: # lookup: IC50 of Cn1cc(Nc2nccc(-c3ccc4c(c3)CN(C3COC3)CC[C@H]4NC(=O)c3cn(C(C)(C)C)nn3)n2)cn1
Data returned: > 25 µM

* * *

- experimental.system: Early activation antigen CD69 (Homo sapiens, UniProt Q07108)
- Sequence (Q07108 whole entry): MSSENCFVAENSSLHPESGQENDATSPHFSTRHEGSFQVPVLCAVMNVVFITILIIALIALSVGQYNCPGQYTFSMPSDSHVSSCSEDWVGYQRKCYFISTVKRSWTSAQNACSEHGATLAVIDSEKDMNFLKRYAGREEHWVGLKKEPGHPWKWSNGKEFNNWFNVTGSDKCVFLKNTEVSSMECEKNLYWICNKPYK
- method.description: Inhibition of CD69 (unknown origin) assessed as reduction in BCR mediated B cell activation
- Type: cell-based
readout.kind: pIC50
Field pIC50 (float): negative decimal logarithm of the concentration in molar.

Data request: # lookup: pIC50 of Cn1cc(Nc2nccc(-c3ccc4c(c3)CN(C3COC3)CC[C@H]4NC(=O)c3cn(C(C)(C)C)nn3)n2)cn1
Data returned: 7.15

* * *

- experimental.system: Cytochrome P450 2C9 (Homo sapiens, UniProt P11712)
- Sequence (P11712 whole entry): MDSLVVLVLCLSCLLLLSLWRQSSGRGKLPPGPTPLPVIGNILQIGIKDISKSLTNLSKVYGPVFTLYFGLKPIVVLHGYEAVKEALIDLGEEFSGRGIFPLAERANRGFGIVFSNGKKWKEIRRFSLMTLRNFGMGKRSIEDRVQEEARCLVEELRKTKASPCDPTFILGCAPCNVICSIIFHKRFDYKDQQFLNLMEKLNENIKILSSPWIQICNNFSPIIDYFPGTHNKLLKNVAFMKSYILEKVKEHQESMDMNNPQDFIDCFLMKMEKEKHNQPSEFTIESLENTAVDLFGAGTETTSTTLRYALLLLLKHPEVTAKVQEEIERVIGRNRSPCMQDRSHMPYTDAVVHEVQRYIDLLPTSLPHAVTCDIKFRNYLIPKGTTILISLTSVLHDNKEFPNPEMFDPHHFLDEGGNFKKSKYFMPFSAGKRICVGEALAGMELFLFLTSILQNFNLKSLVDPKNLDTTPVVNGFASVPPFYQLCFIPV
readout.kind: pIC50
Field pIC50 (float): negative decimal logarithm of the concentration in molar.

Data request: # lookup: pIC50 of Cn1cc(Nc2nccc(-c3ccc4c(c3)CCCC[C@H]4NC(=O)c3cn(C(C)(C)C)nn3)n2)cn1
Data returned: 5.70

* * *

- method.description: Oral bioavailability in Beagle dog at 5 mg/kg
- Format: ADME, organism-based, Canis lupus familiaris
- condition: in vivo
readout.kind: bioavailability (%)
Provide only the numeric value, understood in %.

Data request: # lookup: bioavailability of CC(C)OC1CN(C(=O)N[C@@H]2CCCCc3cc(-c4ccnc(Nc5cnn(C)c5)n4)ccc32)C1
Data returned: 92
